FYI, the data here is from patent US20140065163A1.

molecular target: human GM-CSF I117 (human, UniProt P04141 18-144); test: cell-based or functional assay
Sequence (P04141 18-144 limits assumed): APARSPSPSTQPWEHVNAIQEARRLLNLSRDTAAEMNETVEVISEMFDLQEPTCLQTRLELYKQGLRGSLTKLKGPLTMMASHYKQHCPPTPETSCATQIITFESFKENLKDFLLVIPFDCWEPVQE
Assay endpoint: IC50, inhibition of GM-CSF induced TF-1 proliferation (32 pM GM-CSF) (pM)
Kindly answer with a numeric value in pM, unit omitted.

For orientation, consider the following solved cases.
• MSB0010595 4K21 (4K21 hVH S56V-T62S hVL S27eY-N28I-H34S-N53R-H93Y) (antibody, V domains shown) VH: EVQLVESGGGLVQPGGSLRLSCAASGFAFSAYDMSWVRQAPGKRLELVAYISSGGSVFYYPDSVKGRFTISRDNAKNSLYLQMNSLRAEDTAVYYCTRHLGFDYWGQGTLVTVSS VL: DIVMTQSPLSLPVTPGEPASISCRSSQSLVNYIGNTYLSWYLQKPGQSPQLLIYKVSRRFSGVPDRFSGSGSGTDFTLKISRVEAEDVGVYYCSQSTYVPPTFGQGTKVEIK = 37
• anti-GM-CSF 4K21 hIgG1K antibody (MSB0010259), recombinant chimeric 4K21 (antibody, V domains shown, Murine variable domains fused to human constant IgG1 heavy chain and kappa light chain domains) VH: EVQLVESGGGLVKSGGSLKLSCAASGFAFSAYDMSWVRQTPEKRLELVAYISSGGSSFYYPDTVKGRFTISRDNAKNTLYLQMSSLKSEDTAMYYCTRHLGFDYWGQGTTLTVSS VL: DVVMTQTPLSLPVSLGDQASISCRSSQSLVNSNGNTYLHWFLQKPGQSPKLLIYKVSNRFSGVPDRFSGSGSGTDFTLKISRVEAEDLGVYFCSQSTHVPPTFGGGTKLEIK = 130

Would you kindly look at the next entry?
# binder humanized parental anti-GM-CSF 4K21 VH3-07.1AL+VK2-A3.2 hIgG1K antibody (MSB0010439) (antibody, V domains shown, Human IgG1 kappa; also called humanized parental 4K21 hVH hVL; parental 4K21) VH: EVQLVESGGGLVQPGGSLRLSCAASGFAFSAYDMSWVRQAPGKRLELVAYISSGGSSFYYPDTVKGRFTISRDNAKNSLYLQMNSLRAEDTAVYYCTRHLGFDYWGQGTLVTVSS VL: DIVMTQSPLSLPVTPGEPASISCRSSQSLVNSNGNTYLHWYLQKPGQSPQLLIYKVSNRFSGVPDRFSGSGSGTDFTLKISRVEAEDVGVYYCSQSTHVPPTFGQGTKVEIK ; its IC50, inhibition of GM-CSF induced TF-1 proliferation (32 pM GM-CSF) = 121
